# MEASURED TARGET: MK-801 binding site of the N-methyl-D-aspartate receptor (NMDAR)
# ASSAY REMARKS: NMDAR radioligand binding with [3H]MK-801, Method B
# Design: species or system Sprague Dawley rat
# MEASUREMENT CONDITIONS: MK-801 site, Method B, male Sprague Dawley rat cortex, 5.0 nM [3H]MK-801; read-out: NMDAR Ki ± SEM
# Protocol: Radioligand Binding—Method B. Affinity of the test compounds for NMDAR was determined in radioligand binding experiments with [^3H]MK-801 by WuXi AppTec (Hong Kong) Limited, under the conditions described in Table 13.
# reported pKi; entries follow
// pKi is dimensionless: -log10 of concentration (M)

MOLECULE | NUMERIC READOUT
N[C@]1(c2ccccc2)CCCCC1=O [Compound 11S, (S)-2-amino-2-phenyl-cyclohexan-1-one] | 5.92
Cc1ccccc1[C@@]1(N)CCCCC1=O [Compound 114S, (S)-2-amino-2-(o-tolyl)cyclohexan-1-one] | 5.60

Consider the record given below.
Exercise: Provide only the value of recorded pKi for CC(C)N[C@]1(c2ccccc2)CCCCC1=O [Compound 28S]
Key: 5.52

----------
# ASSAY REMARKS: Oral bioavailability in mice, Method B
# Type: in vivo
# MEASUREMENT CONDITIONS: male, mouse; brain, CD-1 mice, 10 mg/kg iv, Method B; read-out: t1/2 (iv)
Each item that follows carries a reported half-life.
Please state the figure in min; there is no need to write the unit.

MOLECULE | half-life / min
N[C@@]1(c2ccccc2)CCCCC1=O [Compound 11R, (R)-2-amino-2-phenyl-cyclohexan-1-one] | 70.2
[2H]C([2H])([2H])N[C@@]1(c2ccccc2)CCCCC1=O [Compound 88R] | 36
N[C@]1(c2ccccc2)CCCCC1=O [Compound 11S, (S)-2-amino-2-phenyl-cyclohexan-1-one] | 42
Cc1ccccc1[C@]1(N)CCCCC1=O [Compound 114R, (R)-2-amino-2-(o-tolyl)cyclohexan-1-one] | 19.2

Please look at the following molecule next.
Exercise: Give the reported value of half-life for this record: CN[C@]1(c2cccc(F)c2)CCCCC1=O [Compound 19S]
Key: 116

----------
# ASSAY REMARKS: RLM stability (High Activity)
# Type: in vitro ADME, Sprague Dawley rats
# MEASUREMENT CONDITIONS: male, Sprague Dawley, rat, liver microsomes, pH 7.4, Condition 2 (High Activity), 1 μM, 1.0 mg protein/mL
The label MET is reserved for microsomal CLint at 1 μM strictly under 40 µL/min/mg; NOT MET covers values equal to or above it.

Exercise: Check if microsomal CLint at 1 μM falls below 40 µL/min/mg for O=C1CCCC[C@@]1(c1ccccc1)N1CCC1 [Compound 84S] .
Key: MET

----------
# ASSAY REMARKS: HLM stability (High Activity)
# Type: in vitro ADME
# MEASUREMENT CONDITIONS: both sexes, human, liver microsomes, pH 7.4, Condition 2 (High Activity), 1.0 mg protein/mL
OBSERVABLE: half-life at 1 μM (h)
Please state the figure in h; there is no need to write the unit.

COMPOUND | half-life at 1 μM (h)
O=C1CCCC[C@@]1(c1ccccc1)N1CCC1 [Compound 84S] | 2.76
CN[C@@]1(c2ccccc2C)CCCCC1=O [Compound 38R] | 1.85
[2H]C([2H])([2H])N[C@]1(c2ccccc2)CCCCC1=O [Compound 88S] | 2.78

Would you kindly look at the next entry?
Exercise: Annotate the compound CCNC1(c2ccccc2)CCCCC1=O (racemic) with its measured half-life at 1 μM.
Key: 4.98
